Would you kindly list pIC50 for each of these molecules?
Molecular target: sodium-proton exchanger subtype 3 (NHE3) (Homo sapiens)
Sequence (P48764 26-834, species assumed): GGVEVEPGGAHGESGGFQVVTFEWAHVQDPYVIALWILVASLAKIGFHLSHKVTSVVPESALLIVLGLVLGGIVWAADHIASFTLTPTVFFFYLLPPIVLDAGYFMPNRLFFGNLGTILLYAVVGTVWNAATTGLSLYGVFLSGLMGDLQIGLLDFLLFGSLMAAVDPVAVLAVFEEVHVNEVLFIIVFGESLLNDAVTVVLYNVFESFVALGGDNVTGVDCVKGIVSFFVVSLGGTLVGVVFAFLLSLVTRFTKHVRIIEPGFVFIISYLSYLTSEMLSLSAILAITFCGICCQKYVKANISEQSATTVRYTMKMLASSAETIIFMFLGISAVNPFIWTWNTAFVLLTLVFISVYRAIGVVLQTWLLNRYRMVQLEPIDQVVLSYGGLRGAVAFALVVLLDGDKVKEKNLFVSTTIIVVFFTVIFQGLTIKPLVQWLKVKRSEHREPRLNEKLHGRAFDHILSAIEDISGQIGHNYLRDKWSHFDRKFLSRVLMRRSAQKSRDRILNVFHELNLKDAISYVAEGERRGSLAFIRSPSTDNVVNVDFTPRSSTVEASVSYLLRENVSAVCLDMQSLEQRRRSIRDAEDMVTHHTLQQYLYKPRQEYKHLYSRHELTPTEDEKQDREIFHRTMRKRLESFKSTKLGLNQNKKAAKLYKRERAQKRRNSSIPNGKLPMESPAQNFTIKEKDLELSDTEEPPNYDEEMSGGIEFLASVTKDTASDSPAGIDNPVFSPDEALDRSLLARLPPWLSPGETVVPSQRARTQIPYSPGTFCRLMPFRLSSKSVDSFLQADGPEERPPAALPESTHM
Experiment: recovery of intracellular pH (pHi) of LAP1 cells stably expressing NHE3 after acidification (BCECF, FLIPR)
Conditions: pH recovery in percent of maximum recovery, XLFit, read-out: IC50 (inhibitory action on the NHE3)
Structures can show the parent of a compound that is named as a salt.
Numbers only, as −log10 of the molar value.

Consider the following illustrative entries.
>>> df
                                   molecule  experimental_result
0  CN1Cc2c(Cl)cc(Cl)cc2[C@@H](c2ccccc2N2C(=O)CCC2=O)C1 [Example 34]                 4.53
1  CN1Cc2c(Cl)cc(Cl)cc2[C@H](c2cccc(N3C(=O)C=CC3=O)c2)C1 [Example 10]                 7.33
2  CN1Cc2c(Br)cc(Cl)cc2C(c2ccccc2N2CCCC2=O)C1 (centres unmarked) [Example 64]                 6.60

Items follow; give pIC50 for each.
1. CN1CC(=O)N(c2ccccc2[C@@H]2CN(C3CC3)Cc3c(Cl)cc(Cl)cc32)C1=O [Example 55, hydrochloride]
2. CN1Cc2c(Cl)cc(Cl)cc2[C@H](c2ccccc2N2C(=O)COC2=O)C1 [Example 43]

6.92
7.31

###

Target: UniProt P48764
Experiment: recovery of intracellular pH (pHi) of LAP1 cells stably expressing NHE3 after acidification (BCECF, FLIPR)
Details: pH recovery in percent of maximum recovery, XLFit, read-out: IC50 (inhibitory action on the NHE3)
Counter-ions that a name gives are not always drawn.
Can you tell me IC50 for the items I'm about to list?
Give bare numbers, in nM.

Reference set, count: 3
In [3]: df
Out[3]:
                                   compound   target_system  experimental_result
0  CN1Cc2c(Cl)cc(Cl)cc2C(c2ccc(N3CCNS3(=O)=O)cc2)C1 (stereo not shown) [Example 8]  UniProt P48764                 2590
1  CN1Cc2c(Cl)cc(Cl)cc2[C@H](c2ccccc2-n2cc[nH]c2=O)C1 [Example 40, hydrochloride]  UniProt P48764                  131
2  CN1Cc2c(Cl)cc(Cl)cc2[C@H](c2ccccc2N2C(=O)CSC2=O)C1 [Example 42]  UniProt P48764                   69

I would be grateful if you could provide IC50 for each of the following entries.
1. CN1Cc2c(Cl)cc(Cl)cc2[C@H](c2ccc(N3C(=O)CCCC3=O)cc2)C1 [Example 16]
2. CC1CC(C)C(=O)N(c2ccccc2[C@@H]2CN(C)Cc3c(Cl)cc(Cl)cc32)C1=O (stereo partly shown) [Example 29]

1. 222
2. 1200

Hello, I would appreciate it if you could give IC50 for each entry below.
1. CSCCC1NC(=O)N(c2ccccc2[C@@H]2CN(C)Cc3c(Cl)cc(Cl)cc32)C1=O (mixture of isomers) [Example 57, trifluoroacetic acid salt]
2. CN1Cc2c(Cl)cc(Cl)cc2[C@H](c2ccc(N3C(=O)CCC3=O)cc2)C1 [Example 14]
3. O=C1CCC(=O)N1c1ccccc1[C@@H]1CNCc2c(Cl)cc(Cl)cc21 [Example 52, trifluoroacetic acid salt]
4. CN1Cc2c(Cl)cc(Cl)cc2[C@H](c2ccccc2N2C(=O)CCC2=O)C1 [Example 7, hydrochloride]
5. CN1Cc2c(Cl)cc(Cl)cc2[C@H](c2cccc(N3CCCCC3=O)c2)C1 [Example 38]
6. CN1Cc2c(Cl)cc(Cl)cc2[C@H](c2cccc(N3C(=O)CNC3=O)c2)C1 [Example 4, hydrochloride]

1. 1400
2. 119
3. 12300
4. 39
5. 461
6. 129

Here are 4 compounds. What values of IC50 were reported for them?
1. CN1Cc2c(Cl)cc(Cl)cc2[C@H](c2ccccc2N2C(=O)COCC2=O)C1 [Example 44, trifluoroacetic acid salt]
2. CN1Cc2c(Cl)cc(Cl)cc2[C@H](c2ccccc2N2CCOC2=O)C1 [Example 46]
3. CN1Cc2c(Cl)cc(Cl)cc2[C@H](c2ccccc2N2CCCC2=O)C1 [Example 35, trifluoroacetate]
4. CN1Cc2c(Cl)cc(Cl)cc2[C@H](c2ccccc2N2CCCS2(=O)=O)C1 [Example 51, hydrochloride]

1: 220; 2: 220; 3: 82; 4: 141

So what does the record say about IC50 for CC(C)CC1NC(=O)N(c2ccccc2[C@@H]2CN(C)Cc3c(Cl)cc(Cl)cc32)C1=O (stereo partly shown) [Example 58] ?
7400
